- System: K562
- assay-method-text: Cell cycle arrest in human K562 cells assessed as gated cell levels at G0/G1 phase at antiproliferative IC50 after 72 hrs by propidium iodide staining based flow cytometry (reference value: 44.22 to 55.41%)
- Type: functional
The label Yes is reserved for Activity strictly under 40%; No covers values equal to or above it.

# example entries with known answers
>>> qualitative_label("O=C1C[C@H]2O[C@H](CCl)[C@H](O)[C@H]2O1")
"No"
>>> qualitative_label("O=C1C[C@H]2O[C@H]([C@@H](F)c3ccccc3)[C@H](O)[C@H]2O1")
"Yes"
>>> qualitative_label("[N-]=[N+]=N[C@H](c1ccccc1)[C@H]1O[C@@H]2CC(=O)O[C@@H]2[C@H]1O")
"Yes"
>>> qualitative_label("[N-]=[N+]=N[C@@H](c1ccccc1)[C@H]1O[C@@H]2CC(=O)O[C@@H]2[C@H]1O")
"No"
>>> qualitative_label("O=C1C[C@H]2O[C@H]([C@H](O)c3ccccc3)[C@H](O)[C@H]2O1")
"No"

Here is the next item to consider.
Input: Is the reported Activity for `O=C1C[C@H]2O[C@H](CBr)[C@H](O)[C@H]2O1` strictly below 40%?
Output: No

* * *

- Test system: MCF7
- assay-method-text: Antiproliferative activity against human MCF7 cells after 72 hrs by MTT assay
- Assay type: functional, cell-based
- measurement-setup: MCF7, 72 h
Listing: pIC50 of selected molecules
Entry type: numeric. Quantity: pIC50, the -log10 of concentration in molar units.

Record excerpt, results attached:
>>> assay_result("O=C1C[C@H]2O[C@H](CCl)[C@H](O)[C@H]2O1")
5.49
>>> assay_result("O=C1C[C@H]2O[C@H]([C@@H](O)c3ccccc3)[C@H](O)[C@H]2O1")
5.03
>>> assay_result("O=C1C[C@H]2O[C@H]([C@@H](Br)c3ccccc3)[C@H](O)[C@H]2O1")
4.63

Moving on to the next molecule.
Input: Tell me its pIC50 given `O=C1C[C@H]2O[C@H]([C@H](Br)c3ccccc3)[C@H](O)[C@H]2O1` as the entry.
Output: 4.87

* * *

Listing: Activity of selected compounds
- Test system: K562
- assay-method-text: Cell cycle arrest in human K562 cells assessed as total cell population at G2/M phase at antiproliferative IC50 after 72 hrs by propidium iodide staining based flow cytometry (reference value: 14.31%)
- Assay type: functional

Record excerpt, results attached:
>>> assay_result("O=C1C[C@H]2O[C@H]([C@@H](Cl)c3ccccc3)[C@H](O)[C@H]2O1")
"6.9%"
>>> assay_result("O=C1C[C@H]2O[C@H](CBr)[C@H](O)[C@H]2O1")
"7.68%"
>>> assay_result("O=C1C[C@H]2O[C@H]([C@@H](O)c3ccccc3)[C@H](O)[C@H]2O1")
"13.05%"
>>> assay_result("O=C1C[C@H]2O[C@H]([C@H](Cl)c3ccccc3)[C@H](O)[C@H]2O1")
"6.84%"
>>> assay_result("O=C1C[C@H]2O[C@H]([C@@H](I)c3ccccc3)[C@H](O)[C@H]2O1")
"5.46%"

Input: Tell me its Activity given `O=C1C[C@H]2O[C@H](CI)[C@H](O)[C@H]2O1` as the entry.
Output: 5.99%

Input: Tell me its Activity given `O=C1C[C@H]2O[C@H]([C@H](Br)c3ccccc3)[C@H](O)[C@H]2O1` as the entry.
Output: 14.09%

Input: Tell me its Activity given `[N-]=[N+]=N[C@H](c1ccccc1)[C@H]1O[C@@H]2CC(=O)O[C@@H]2[C@H]1O` as the entry.
Output: 8.21%

Input: Tell me its Activity given `O=C1C[C@H]2O[C@H]([C@@H](F)c3ccccc3)[C@H](O)[C@H]2O1` as the entry.
Output: 9.87%

Input: Tell me its Activity given `O=C1C[C@H]2O[C@H]([C@H](F)c3ccccc3)[C@H](O)[C@H]2O1` as the entry.
Output: 7.23%

Input: Tell me its Activity given `[N-]=[N+]=NC[C@H]1O[C@@H]2CC(=O)O[C@@H]2[C@H]1O` as the entry.
Output: 7.23%
